experiment: Binding affinity to bacteria ADC-7 assessed as dissociation constant
Kd values by entry
observation type: Kd

>>> print(df.to_string())
                                   molecule  observation_type  value_observed
0  O=C(NNC(=O)[C@@H]1CC[C@@H]2CN1C(=O)N2OS(=O)(=O)O)[C@@H]1CCNC1                Kd           29 nM
1  NC(=O)[C@@H]1CC[C@@H]2CN1C(=O)N2OS(=O)(=O)[O-].[Na+] [AVIBACTAM SODIUM]                Kd           90 nM
2  O=C(NNC(=O)[C@@H]1CC[C@@H]2CN1C(=O)N2OS(=O)(=O)O)[C@@H]1CCCNC1 [ZIDEBACTAM]                Kd           32 nM

* * *

test system: Pseudomonas aeruginosa; experiment: Synergistic antibacterial activity against Pseudomonas aeruginosa 776 assessed as meropenem MIC at 4 ug/ml by broth microdilution method; assay type: functional; details: dose 4 µg/ml
observation type: MIC (µg/mL)

                                smiles_repr  modifier_sign  value_observed
0  O=C(NNC(=O)[C@@H]1CC[C@@H]2CN1C(=O)N2OS(=O)(=O)O)[C@@H]1CCCNC1              =              16
1  O.O=C(NC1CCNCC1)[C@@H]1CC[C@@H]2CN1C(=O)N2OS(=O)(=O)O              >              16
2  O=C(NNC(=O)[C@@H]1CC[C@@H]2CN1C(=O)N2OS(=O)(=O)O)[C@@H]1CCNC1              =              16
3  N#C[C@@H]1CC[C@@H]2CN1C(=O)N2OS(=O)(=O)[O-].[Na+]              =              16

* * *

tested on: Bacteria; assay: Inhibition of bacteria ADC-7 assessed as second order rate constant K2/K using nitrocefin as substrate
K values by entry
observation type: K

>>> print(df.to_string())
                                   compound  observation_type  value_observed
0  N#C[C@@H]1CC[C@@H]2CN1C(=O)N2OS(=O)(=O)[O-].[Na+]                 K    1.9 10^4/M/s
1  O=C(NNC(=O)[C@@H]1CC[C@@H]2CN1C(=O)N2OS(=O)(=O)O)[C@@H]1CCCNC1                 K    3.5 10^4/M/s
2  NC(=O)[C@@H]1CC[C@@H]2CN1C(=O)N2OS(=O)(=O)[O-].[Na+] [AVIBACTAM SODIUM]                 K    3.9 10^3/M/s
3  O=C(NNC(=O)[C@@H]1CC[C@@H]2CN1C(=O)N2OS(=O)(=O)O)[C@@H]1CCNC1                 K    3.2 10^4/M/s
4  O.O=C(NC1CCNCC1)[C@@H]1CC[C@@H]2CN1C(=O)N2OS(=O)(=O)O                 K    7.8 10^3/M/s

* * *

tested on: Pseudomonas aeruginosa; assay: Synergistic antibacterial activity against Pseudomonas aeruginosa 795 assessed as cefepime MIC at 4 ug/ml by broth microdilution method; type: functional; conditions: dose 4 µg/ml
MIC values by entry
observation type: MIC (µg/mL)

>>> print(df.to_string())
                                   compound  observation_type  modifier_sign  value_observed
0  N#C[C@@H]1CC[C@@H]2CN1C(=O)N2OS(=O)(=O)[O-].[Na+]               MIC              >              16
1  O=C(NNC(=O)[C@@H]1CC[C@@H]2CN1C(=O)N2OS(=O)(=O)O)[C@@H]1CCCNC1 [ZIDEBACTAM]               MIC              =              16
2  O=C(NNC(=O)[C@@H]1CC[C@@H]2CN1C(=O)N2OS(=O)(=O)O)[C@@H]1CCNC1               MIC              =             0.5
3  O.O=C(NC1CCNCC1)[C@@H]1CC[C@@H]2CN1C(=O)N2OS(=O)(=O)O [RELEBACTAM]               MIC              >              16
4  NC(=O)[C@@H]1CC[C@@H]2CN1C(=O)N2OS(=O)(=O)[O-].[Na+] [AVIBACTAM SODIUM]               MIC              >              16
